- System: SF-539 CNS
- assay_name: NCI-60 one-dose screen, 48 h
- condition_summary: 10 µM unless noted
The panel holds about 83,000 compounds, 20% with a hit somewhere; the sample as a whole holds those more often. The source made the active and inactive calls. How the source made its calls: active means growth percent below 10; inactive means the rest.
Classes used: Y (active), N (inactive)

CCCCC(CCc1ccccn1)C(=O)c1ccccc1 (centres undefined); N
Fc1ccc2nc(-c3ccc(-c4noc(-c5ccc(Cl)cc5)n4)cc3)[nH]c2c1; N
C1=C\CCCCN2CC[C@H]3[C@H](CCCC/C=C\CCCN4C[C@@H](CCCCC/1)C[C@@H]3C4)C2; N
COc1c(B(O)O)cccc1-c1nc2c(F)cc3n[nH]c(C)c3c2c2c1CCCC2; Y
O=C(CCc1nc2sc3c(c2c(=O)[nH]1)CCC3)NCc1cn(-c2ccccc2)nc1-c1ccccc1; N
CN(C)CCOc1nc2c3ccncc3cc(-c3cccc(Cl)c3)c2c2cnccc12; N
Cc1ccc(NC(=O)c2[nH]c(SCCN(C)C)nc2-c2ccc(F)cc2)cc1Nc1ccc2ncn(C)c(=O)c2c1; N
COc1ccc(-c2cnc3ccnn3c2-c2cc(OC)c(OC)c(OC)c2)cc1; Y
CCOc1ccc([C@@H]2[C@@H](Oc3ccccc3)C(=O)N2c2cc(OC)c(OC)c(OC)c2)cc1; Y

* * *

- Test system: U251 CNS
- assay_name: NCI-60 one-dose screen, 48 h (100 = growth as untreated, 0 = no growth, -100 = all killed)
- condition_summary: 10 µM unless noted
Compounds without any hit were thinned out: in the full panel of roughly 83,000, 20% have a hit. Calls of active or inactive are those of the source. How the source made its calls: active means growth percent below 10; inactive means the rest.
We begin with a simple list: items and their reported growth.
measured_attribute: growth

Clc1ncnc2scc(C3COc4ccccc4O3)c12 (stereo unspecified); 90.4% (inactive)
CCc1ccc(Nc2cc(C)c3ccc(O)cc3n2)cc1; 60.9% (inactive)
CN=C1C=C/C(=N/N=c2/ccn(O)cc2C)C=C1C; 102% (inactive)
COC1=CC(c2ccc[nH]2)=N/C1=C\c1[nH]c(C)c(C(=O)CCCCCCCCC(=O)O[C@H]2CC[C@H]3C4CCc5cc(O)ccc5C4CC[C@]23C)c1C (stereo partly specified); 20.9% (inactive)
COc1cccc(Cn2c(-c3nonc3NC(C)=O)nc3ccccc32)c1; 27.1% (inactive)
COc1cc2c(cc1OCCCOc1cc3c(cc1OC)C(=O)N1CCC[C@H]1C=N3)C=CC(C)(C)O2; 66.6% (inactive)
c1ccc2c(c1)cnc1ccccc12; 109% (inactive)
O=C(/C=C/c1ccccc1)C(Br)C(Br)c1ccccc1 (stereo unspecified); 42.9% (inactive)
COc1ccc2[nH]c(O)c(/C=c3/ccc4c(c3)N=C(c3ccc(F)cc3)N=4)c2c1; 42.1% (inactive)
O=C(O)c1ccccc1N=Cc1ccccc1; 106% (inactive)
Cc1c(O)c(=O)n(-c2ccccc2)n1C; 105% (inactive)
c1ccc2c(Cc3csc4ccccc34)csc2c1; 81.9% (inactive)
O=C(Nc1ccc(Cl)c(C(F)(F)F)c1)c1ccc(Nc2ccc(Cl)nn2)cc1; 51.5% (inactive)
Fc1ccc2nc(-c3ccc(-c4noc(-c5ccc(Cl)cc5)n4)cc3)[nH]c2c1; 103% (inactive)
CCN(CC)CCCC(C)N/C(c1cccc(OC)c1)=c1\c(=O)[nH]n(-c2c3ccccc3nc3ccccc23)c(=O)\c1=C(/NC(C)CCCN(CC)CC)c1cccc(OC)c1 (stereo unspecified); -73% (active)
O=C1c2ccccc2C2N1CCC1CCc3ccccc3N12 (stereo unspecified); 89.7% (inactive)
CN(C)c1ccc(N2Cc3ccccc3OC3=C2C(=O)c2c(O)ccc(O)c2C3=O)cn1; -15.7% (active)
O=C(Oc1c(Cl)c(Cl)c(Cl)c(Cl)c1Cl)C1CCCN1C(=O)OCc1ccccc1 (stereo unspecified); 18.3% (inactive)
CC[C@H](Nc1nc(C)nc(N)c1C#N)c1nc2cccc(NCc3ccc(C(=O)NO)cc3)c2c(=O)n1-c1ccccc1; 1.03% (active)
COc1ccc(/C(=C\c2ccc3c(c2)OCO3)C(=O)Nc2nc3ccccc3s2)cc1; 101% (inactive)
CCCOC(=O)C1c2cc3c(cc2CC(C)C1C(=O)OCCC)OCO3 (stereo unspecified); 95.2% (inactive)
